target: Metabotropic glutamate receptor 8 (Rattus norvegicus) (UniProt P70579); test: mGluR8 Gi/Go-coupled signaling modulation – cell-based, rat, thallium flux, HTS, primary screen (AID 488969); details: HEK293 rat mGluR8, GIRK thallium flux, FluoZin2; at 10 µM; stronger effect = higher value; submaximal glutamate (EC20) added with thallium
Sequence (P70579 whole entry, looked up): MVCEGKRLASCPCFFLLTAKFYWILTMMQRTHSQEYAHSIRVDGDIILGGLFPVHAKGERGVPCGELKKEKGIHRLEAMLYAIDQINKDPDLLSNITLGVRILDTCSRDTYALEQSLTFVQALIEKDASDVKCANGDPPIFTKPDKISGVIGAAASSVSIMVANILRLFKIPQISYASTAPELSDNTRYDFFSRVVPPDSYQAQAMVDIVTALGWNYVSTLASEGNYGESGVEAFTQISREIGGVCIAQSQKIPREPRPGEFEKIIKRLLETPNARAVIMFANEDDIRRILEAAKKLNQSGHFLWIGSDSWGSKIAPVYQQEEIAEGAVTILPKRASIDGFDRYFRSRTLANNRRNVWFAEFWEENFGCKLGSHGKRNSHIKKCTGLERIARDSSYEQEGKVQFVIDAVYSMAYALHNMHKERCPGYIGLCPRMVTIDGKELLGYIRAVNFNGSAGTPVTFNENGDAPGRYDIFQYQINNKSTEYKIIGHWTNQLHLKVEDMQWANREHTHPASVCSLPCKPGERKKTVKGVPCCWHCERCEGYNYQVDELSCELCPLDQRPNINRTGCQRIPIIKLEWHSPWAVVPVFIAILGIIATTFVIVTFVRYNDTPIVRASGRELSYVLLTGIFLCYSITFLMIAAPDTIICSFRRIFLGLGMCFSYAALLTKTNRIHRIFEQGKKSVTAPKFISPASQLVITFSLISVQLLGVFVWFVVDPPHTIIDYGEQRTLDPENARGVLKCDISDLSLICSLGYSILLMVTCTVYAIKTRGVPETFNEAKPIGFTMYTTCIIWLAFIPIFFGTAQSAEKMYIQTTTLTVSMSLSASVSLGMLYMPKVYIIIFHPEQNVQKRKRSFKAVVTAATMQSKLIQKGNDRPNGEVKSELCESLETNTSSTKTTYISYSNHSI
In all, about 110,000 compounds were measured (“z-score”: median about -0.1, highest 2% from about 2 on). This excerpt belongs to a sample that is enriched for the highest values.
Binary call on z-score: label 1 from 0.6 upward, label 0 beneath that.

Compound Structure: Nc1nonc1C(=O)NCCNCc1ccccc1OCc1ccccc1F
Assay System: Metabotropic glutamate receptor 8 (Rattus norvegicus) (UniProt P70579)
Assigned Class: label 1

Compound Structure: Cc1ccc(Nc2nnc(-c3ccncc3)s2)c(Br)c1
Assay System: Metabotropic glutamate receptor 8 (Rattus norvegicus) (UniProt P70579)
Assigned Class: label 0

Compound Structure: CCCN1C(=O)/C(=C/c2ccc(N3CCCC3)c(C)c2)NC1=S
Assay System: Metabotropic glutamate receptor 8 (Rattus norvegicus) (UniProt P70579)
Assigned Class: label 1

Compound Structure: COc1ccc(-c2nc(CS(=O)(=O)CC(=O)NCCc3cc(OC)ccc3OC)c(C)o2)cc1
Assay System: Metabotropic glutamate receptor 8 (Rattus norvegicus) (UniProt P70579)
Assigned Class: label 0

Compound Structure: CN(C)C(=O)CN(c1ccc(F)c(Cl)c1)S(C)(=O)=O
Assay System: Metabotropic glutamate receptor 8 (Rattus norvegicus) (UniProt P70579)
Assigned Class: label 0

====

target: Metabotropic glutamate receptor 8 (Rattus norvegicus) (UniProt P70579); test: mGluR8 Gi/Go-coupled signaling modulation – cell-based, rat, thallium flux, HTS, primary screen (AID 488969); settings: HEK293 rat mGluR8, GIRK thallium flux, FluoZin2; at 10 µM; stronger effect = higher value; submaximal glutamate (EC20) added with thallium
Over roughly 110,000 compounds, “z-score” has its median near -0.1; the highest 2% begin near 2. The sample as a whole holds a higher share of the highest values than the screen did.

Molecule: O=C(Nc1ccccc1Br)C1CCC(=O)N1Cc1ccccc1Cl (stereo not given)
Assay System: Metabotropic glutamate receptor 8 (Rattus norvegicus) (UniProt P70579)
z-score: 0.19
--
Molecule: Clc1ccc2c(c1)C(N1CCNCC1)Cc1ccccc1S2 (stereo not given)
Assay System: Metabotropic glutamate receptor 8 (Rattus norvegicus) (UniProt P70579)
z-score: 3.92
--
Molecule: Fc1ccc(NC(=S)Nc2ccc(F)c(Cl)c2)cc1Cl
Assay System: Metabotropic glutamate receptor 8 (Rattus norvegicus) (UniProt P70579)
z-score: -0.0109
--
Molecule: O=C(Nc1cc(Cl)ccc1Oc1ccccc1)c1ccc(F)cc1
Assay System: Metabotropic glutamate receptor 8 (Rattus norvegicus) (UniProt P70579)
z-score: -0.256
--
Molecule: Cn1c(CN2CCN(C(=O)c3ccccc3)CC2)nc2cc([N+](=O)[O-])ccc21
Assay System: Metabotropic glutamate receptor 8 (Rattus norvegicus) (UniProt P70579)
z-score: 0.0497
--
Molecule: COc1ccc(CCC(C)NCC2CCCCC2)cc1 (stereo not given)
Assay System: Metabotropic glutamate receptor 8 (Rattus norvegicus) (UniProt P70579)
z-score: 0.819
--
Molecule: O=c1c2c3c(sc2nc2n1CCCC2)CCCC3
Assay System: Metabotropic glutamate receptor 8 (Rattus norvegicus) (UniProt P70579)
z-score: -0.196
--
Molecule: CCOc1ccc(C(=O)OCCN(CC)CC)cc1
Assay System: Metabotropic glutamate receptor 8 (Rattus norvegicus) (UniProt P70579)
z-score: 0.374
--
Molecule: Clc1cccc2c1Sc1ccccc1CC2N1CCNCC1 (stereo not given)
Assay System: Metabotropic glutamate receptor 8 (Rattus norvegicus) (UniProt P70579)
z-score: 0.386
--
Molecule: COc1cc(C)c(NC(=S)Nc2cccc(Cl)c2)cc1OC
Assay System: Metabotropic glutamate receptor 8 (Rattus norvegicus) (UniProt P70579)
z-score: 0.0992
--
Molecule: CC(C)CNC(=S)NC(=O)c1ccc(F)cc1
Assay System: Metabotropic glutamate receptor 8 (Rattus norvegicus) (UniProt P70579)
z-score: 7.84
--
Molecule: CCOc1ccc(NC(=S)Nc2ccc(C)c([N+](=O)[O-])c2)cc1
Assay System: Metabotropic glutamate receptor 8 (Rattus norvegicus) (UniProt P70579)
z-score: 0.652
--
Molecule: S=C(Nc1cccc(Cl)c1)Nc1ccccc1Oc1ccccc1
Assay System: Metabotropic glutamate receptor 8 (Rattus norvegicus) (UniProt P70579)
z-score: 15.4
--
Molecule: Cc1c(Cl)cnc(NC(=O)COC(=O)CCC(=O)c2cccs2)c1Cl
Assay System: Metabotropic glutamate receptor 8 (Rattus norvegicus) (UniProt P70579)
z-score: -0.28
--
Molecule: O=[N+]([O-])c1ccc(NC(=S)NCCc2ccccc2)cc1
Assay System: Metabotropic glutamate receptor 8 (Rattus norvegicus) (UniProt P70579)
z-score: 2.91
--
Molecule: COc1ccc(C(C(=O)OCCN(C)C)c2ccccc2)cc1 (stereo not given)
Assay System: Metabotropic glutamate receptor 8 (Rattus norvegicus) (UniProt P70579)
z-score: 0.325
--
Molecule: CCCCNC(=S)Nc1ccc([N+](=O)[O-])cc1
Assay System: Metabotropic glutamate receptor 8 (Rattus norvegicus) (UniProt P70579)
z-score: 2
--
Molecule: CCCOc1ccc(C(C(=O)OCCN(CC)CC)c2ccccc2)cc1 (stereo not given)
Assay System: Metabotropic glutamate receptor 8 (Rattus norvegicus) (UniProt P70579)
z-score: 2.43
--
Molecule: O=C(COC(=O)c1cccnc1Nc1cccc(C(F)(F)F)c1)NC1CCS(=O)(=O)C1 (stereo not given)
Assay System: Metabotropic glutamate receptor 8 (Rattus norvegicus) (UniProt P70579)
z-score: -0.275
--
Molecule: O=C1[C@@H]2[C@H](C(=O)N1Cc1ccco1)[C@H]1C=C[C@@H]2C1
Assay System: Metabotropic glutamate receptor 8 (Rattus norvegicus) (UniProt P70579)
z-score: -0.0939
--
Molecule: FC(F)Oc1ccc(NC(=S)NCc2ccccc2)cc1Cl
Assay System: Metabotropic glutamate receptor 8 (Rattus norvegicus) (UniProt P70579)
z-score: 0.178
--
Molecule: Clc1ccc2c(c1)C(C1=NCCN1)c1ccccc1CS2 (stereo not given)
Assay System: Metabotropic glutamate receptor 8 (Rattus norvegicus) (UniProt P70579)
z-score: 0.865
--
Molecule: S=c1[nH]c2ccc(Cl)cc2[nH]1
Assay System: Metabotropic glutamate receptor 8 (Rattus norvegicus) (UniProt P70579)
z-score: 0.488
--
Molecule: CSc1nc2cc(Cl)ccc2s1
Assay System: Metabotropic glutamate receptor 8 (Rattus norvegicus) (UniProt P70579)
z-score: -0.233
--
Molecule: CC(NC(=S)Nc1ccccc1OC(F)F)C(C)(C)C (stereo not given)
Assay System: Metabotropic glutamate receptor 8 (Rattus norvegicus) (UniProt P70579)
z-score: -0.263

====

molecular target: Metabotropic glutamate receptor 8 (Rattus norvegicus) (UniProt P70579); assay: mGluR8 Gi/Go-coupled signaling modulation – cell-based, rat, thallium flux, HTS, primary screen (AID 488969); conditions: HEK293 rat mGluR8, GIRK (G protein-gated inwardly rectifying potassium channel) thallium flux, FluoZin2; at 10 µM; stronger effect = higher value; submaximal glutamate (EC20) added with thallium
Whole data set: some 110,000 compounds, median “z-score” near -0.1, cut for the highest 2% near 2. For the sample, the highest values were picked, then their nearest neighbours and some compounds at random.
Reported z-score values follow for various molecules

Molecule: O=S(=O)(Nc1nc(-c2sccc2Cl)cs1)c1cc(Cl)ccc1Cl
z-score: 3.41
--
Molecule: COc1cc(NC(=O)Cn2nnc(-c3ccncc3)n2)cc(OC)c1
z-score: 0.284
--
Molecule: CC(C)c1nc(C#N)c(NCCCn2ccnc2)o1
z-score: 0.481
--
Molecule: CC1Cc2ccccc2N1C(=O)CCNS(=O)(=O)c1ccc2c(c1)CCC(=O)N2 (centres undefined)
z-score: -0.0721
--
Molecule: Cn1c(SCC(=O)N2c3ccccc3CCc3ccccc32)nnc1-c1cc2ccccc2cc1O
z-score: -0.13
--
Molecule: CC(C)CC(=O)Nc1cccc2c1C(=O)N(c1ccccc1)C2=O
z-score: -3.2
--
Molecule: c1ccc(Cc2nnc(-c3ccccc3)o2)cc1
z-score: 10.4
--
Molecule: CC(=O)Nc1cccc2c1C(=O)N(c1ccc(C)cc1)C2=O
z-score: 0.845
--
Molecule: COc1cccc(C(=O)NC(=S)Nc2ccc(N3CCCC3)cc2)c1
z-score: -0.087
--
Molecule: COc1ccc(S(=O)(=O)Nc2ccccc2C(=O)NCc2ccco2)cc1
z-score: -0.614
--
Molecule: Cn1c(SCC(=O)N2c3ccccc3CCc3ccccc32)nnc1-c1ccc(O)cc1
z-score: 5.88
--
Molecule: O=c1[nH]c(SCCOc2ccccc2)nc2ccccc12
z-score: -0.359
--
Molecule: O=S(=O)(Nc1cccnc1)c1cc(Cl)ccc1Cl
z-score: -0.00571
--
Molecule: COc1ccc2cnn(Cc3ccccc3)c(=O)c2c1OC
z-score: 0.037
--
Molecule: O=C(c1ccc(Cn2c(=O)[nH]c3ccccc3c2=O)cc1)N1CCN(c2ccc(Cl)cc2)CC1
z-score: -0.127
--
Molecule: COc1ccc(CSc2nc3ccccc3[nH]2)cc1
z-score: 0.53
--
Molecule: CCCc1ncc(C(O)c2cccc3ccccc23)n1C (centres undefined)
z-score: 0.327
--
Molecule: Cc1ccccc1C(=O)Oc1cccc(Nc2ncnc3ccccc23)c1
z-score: -1.4
--
Molecule: CCCCOc1ccc(CONS(=O)(=O)c2ccc(NC(C)=O)cc2)cc1Cl
z-score: -0.176
--
Molecule: CCCCC(=O)Nc1ccccc1C(=O)N1CCOCC1
z-score: 0.0261
--
Molecule: O=c1cc(N2CCc3ccccc32)[nH]c(=O)n1-c1ccc(Br)cc1
z-score: -0.058
--
Molecule: ClCc1nnc(-c2ccccc2)o1
z-score: -0.143
--
Molecule: Cc1ccccc1-c1nnc(Cc2ccccc2)o1
z-score: -0.211
--
Molecule: CC(=O)Nc1cccc2c1C(=O)N(c1cccc(C)c1)C2=O
z-score: 3.13
